IC50 values recorded for Angiotensin-converting enzyme (Oryctolagus cuniculus, UniProt P12822)

molecule | study-system | IC50
CCOC(=O)C1=C(C)NC(C)=C(C(=O)OCC)C1c1cc(Br)cc(Br)c1OCC#CCN1CCN(CCO)CC1 | Angiotensin-converting enzyme (Oryctolagus cuniculus, UniProt P12822) | 928 nM
CCOC(=O)C1=C(C)NC(C)=C(C(=O)OCC)C1c1cccc(OC)c1OCc1cn(CC(=O)Nc2nc3ccc(F)cc3s2)nn1 | Angiotensin-converting enzyme (Oryctolagus cuniculus, UniProt P12822) | 713 nM
NCCCC[C@H](N[C@@H](CCc1ccccc1)C(=O)O)C(=O)N1CCC[C@H]1C(=O)O [LISINOPRIL ANHYDROUS] | Angiotensin-converting enzyme (Oryctolagus cuniculus, UniProt P12822) | 281 nM

---

Target: Angiotensin-converting enzyme (Oryctolagus cuniculus) (UniProt P12822)
Sequence (P12822 whole entry): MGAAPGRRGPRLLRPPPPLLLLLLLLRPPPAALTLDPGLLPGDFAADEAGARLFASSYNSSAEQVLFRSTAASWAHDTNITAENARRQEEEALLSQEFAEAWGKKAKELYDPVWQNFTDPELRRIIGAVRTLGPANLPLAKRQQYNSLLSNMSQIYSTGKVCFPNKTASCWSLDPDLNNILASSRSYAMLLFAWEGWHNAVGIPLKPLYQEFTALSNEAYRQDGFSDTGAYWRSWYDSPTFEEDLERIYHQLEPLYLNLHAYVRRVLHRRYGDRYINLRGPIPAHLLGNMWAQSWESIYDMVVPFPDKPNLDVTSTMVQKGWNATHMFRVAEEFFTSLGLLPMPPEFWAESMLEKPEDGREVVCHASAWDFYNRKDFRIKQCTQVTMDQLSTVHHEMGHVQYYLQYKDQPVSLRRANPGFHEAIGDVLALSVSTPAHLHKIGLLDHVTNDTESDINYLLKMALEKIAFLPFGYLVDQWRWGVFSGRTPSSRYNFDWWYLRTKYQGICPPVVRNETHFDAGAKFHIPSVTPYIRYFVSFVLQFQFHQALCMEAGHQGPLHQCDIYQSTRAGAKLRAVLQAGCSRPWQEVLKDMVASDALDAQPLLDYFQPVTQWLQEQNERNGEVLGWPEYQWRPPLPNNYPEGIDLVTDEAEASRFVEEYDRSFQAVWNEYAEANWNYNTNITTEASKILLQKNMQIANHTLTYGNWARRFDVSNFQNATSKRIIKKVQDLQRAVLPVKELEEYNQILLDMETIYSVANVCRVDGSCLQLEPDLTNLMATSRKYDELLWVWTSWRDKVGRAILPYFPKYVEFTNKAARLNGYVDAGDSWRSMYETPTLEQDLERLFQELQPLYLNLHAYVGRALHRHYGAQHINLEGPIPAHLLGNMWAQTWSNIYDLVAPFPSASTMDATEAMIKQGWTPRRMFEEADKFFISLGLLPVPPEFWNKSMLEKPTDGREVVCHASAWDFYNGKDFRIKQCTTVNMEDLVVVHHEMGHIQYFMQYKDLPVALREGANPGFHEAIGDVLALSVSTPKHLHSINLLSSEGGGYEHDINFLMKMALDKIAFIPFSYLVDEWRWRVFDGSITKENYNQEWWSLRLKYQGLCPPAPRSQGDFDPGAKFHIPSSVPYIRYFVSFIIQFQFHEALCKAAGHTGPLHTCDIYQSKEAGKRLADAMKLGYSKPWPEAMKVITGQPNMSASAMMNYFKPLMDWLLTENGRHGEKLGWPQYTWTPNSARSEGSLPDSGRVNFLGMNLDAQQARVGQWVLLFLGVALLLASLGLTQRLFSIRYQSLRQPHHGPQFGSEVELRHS
Assay: Inhibition of rabbit lung ACE using hippuryl-histidyl-leucine as substrate assessed as release of hippuric acid incubated for 10 mins prior to substrate addition measured after 30 mins by spectrophotometry
Calls of active or inactive are those of the source. The rule behind the calls is not given here.
Outcomes: YES (active), NO (inactive)

structure-notation | cat
CCOC(=O)C1=C(C)NC(C)=C(C(=O)OCC)C1c1cc(Br)ccc1OCC#CCN1CCN(c2ccccn2)CC1 | NO
CCOC(=O)C1=C(C)NC(C)=C(C(=O)OCC)C1c1cc(Br)cc(Br)c1OCC#CCN1CCN(CCO)CC1 | YES
CCOC(=O)C1=C(C)NC(C)=C(C(=O)OCC)C1c1cc(Br)ccc1OCc1cn(CC(=O)Nc2nnc(C(F)(F)F)s2)nn1 | NO
CCOC(=O)C1=C(C)NC(C)=C(C(=O)OCC)C1c1cc(Br)ccc1OCc1cn(CC(=O)NC2CCCCC2)nn1 | NO
CCOC(=O)C1=C(C)NC(C)=C(C(=O)OCC)C1c1cc(Br)cc(Br)c1OCc1cn(CC(=O)NC2CC2)nn1 | NO
CCOC(=O)C1=C(C)NC(C)=C(C(=O)OCC)C1c1cc(Br)cc(Br)c1OCC#CCN1CCN(c2ccccn2)CC1 | NO
